The measured values listed here are drawn from the domain aggregation screens of Martell et al. (2025).

- assay: soluble fraction after stress (log2 fold change); higher = more stays soluble; pooled small domains, quantitative proteomics;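 further: 20 min heating vs room temperature control held 20 min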
- details: stress: 75 degC
reported-endpoint: soluble fraction (log2)
Lab note: record the figure alone, no unit after it.

# soluble fraction (log2) of HMPHSTTDFSVSPDERQIVYSTNLQGRYDLWALDHNQGYPYPLTKKGQMSFFIKHLPGSQMILTGFD = -0.161

Value of measured soluble fraction (log2) for the entry HMELLSVPSRLGTFFLGGEAGHIIRLYLPGDPTPRIAEHETPVLSEARRQLLEYLAGRRTAFSFPL : -0.0691

Input HMEPESTMIEISETLTNERLDRYLATKLPNVSRGGIQRLLREGNILVNGKKAKPTQHPVAGQKIEITWPNP . Output soluble fraction (log2): -0.0291

Just so you know, measured soluble fraction (log2) for HMNSNTIIINDIMTKIGKEVKNFTEIYSIILKALAEHGEEYVRTNTEYALKNFTGNFDIFLEQLLLK came out at -0.207

Reported soluble fraction (log2) of HMPSDTNLIGKTGIAYTTLRPGGTALIDDRKVDVVADSEYIEKDKKIKVIRVEGIKVVVTAVK : 0.164

Briefly, soluble fraction (log2) measured for HMAPPIQQQVESLMNSFAKIGVTVPMLESRLQHAMSAVTANELVMLRKIGASIRDGFATVAEQFPA : -1.14

Entry HMSDRLRLGRRIRAARLEQNLSQAALAERLGISASYLNLLEHDRRSLTTVLLLKLAQVLGLELRDLAAG , soluble fraction (log2) reported as -2.49

HMTYTPRAGSLASQVIGFFRHNPDEELLLDDITDKFDATRGNIHTLLAEAVRFKLLARYRNDDGDYVYKPG has a reported soluble fraction (log2) of -3.06

For HMGSQLYTLEVEADEKISLIENNPLLIQKIYLKDNNLFSYKIASSSKTEIASIEKELEKNPSIKRLETA the sequence record lists soluble fraction (log2) as -0.086

The sequence HMNVDSLVGSEARVTAEIDNRKETGTAMVNGQEWTARAESDEEIYPVGTIVEIRKIQGVKLIVSTH showed soluble fraction (log2) equal to -0.394

// soluble fraction (log2) lookup, sequence = HMGKELTVPDVVGQNYVSAQEKLIAGGFQVEVADSVYDSRYGRGVVVDQNPHKDTRVKPGRLIYVTVNA , result: -0.157

Measured soluble fraction (log2), HMGMEENLLKERKQILMDIMKSKEYQPMKVKELAMVLNVPKEDREELRYVLNELMNEGKIVESKKGKFSIA : 0.129

Reported soluble fraction (log2) of HMAVWRIKVNYIPGYGVNIWSSYKNGHFTGKRAMHGETYEVLETKKDQDGNTWYKLDDHQWIEGRYAINAK : -2.45

Per the records, this sequence ( HMRDSYEVEGRIASVSPAAGTFVVAGVTVDYTGARFVGGTVAQLAPGVKVEVEGRRLANGTLQAREIEFD ) has soluble fraction (log2) equal to -0.142

So, HMGSDAFDISKLNLVGKTKESAESLLKENGFSVDTKEEASDTAAKGTVISYSPTKPKNGERVTLTVSSGK ? Its soluble fraction (log2) was 0.385

// soluble fraction (log2) lookup, sequence = HMENVALYIRLKSMASVYDDVHGYNIEWIKSMIGLSIDIEKLRTVLEDVSWITKVEEDVYSFSKNAKPFE , result: -4.31

Lab book: soluble fraction (log2) of HMQQEPNFYIVDGNTNQIVDRYYAPDSNVAHQYLGQWRQQHDPQETGNYRYGRLSSETEERYRNLAA noted as 0.22

For this sequence ( HMQSITAGDKVRVKNYTVSGGKKRGKVYGGAGTFVVYYEKYDVISVTGDRVVIGIGKAVTAAVHIDDLEK ), measured soluble fraction (log2) is -2.07

Just so you know, measured soluble fraction (log2) for HMNELIGVEQLQDLREAIADHGFAEQRVLNWLYQATKGQVSRLEQLPLPMLTTLHKKLGQWADAEAAASSA came out at 0.3

Documented soluble fraction (log2) of HMTGESVPAPLSGTIFKILVAPGEQVEEGQTVIILEAMKMETEISAPRSGVVGAINIKEGDSVQVGQSLFT : 0.232

Record HMPGVLEVDTGGVAAVAYVDGVEVGRVPGELQIAAGTKTLMLKADRYLDYVQSLEIDGLGKRQLLVATLQS . Reported soluble fraction (log2): -0.0797

In plain terms, HMSDFSNLNLLELNSSELDLLLRRASSQGLTQMDLLKMARSQGLSEADLIKVKGKIDTSESIKR has a documented soluble fraction (log2) of 0.076

Reported soluble fraction (log2) for HMDRQIQITVAENEAGQRLDAFLAAKIPDMSRSYIQKLIEDGLILVNGQSTKGKVKTYSGMNIEVYMPE was -0.0484

Lab note: HMTNALDMMKTMDSDAYTKYQKISKESSNEDRQLNELKYITNWYAGAVKKNPSMVDDYEKQKEADS gave soluble fraction (log2) of 0.302

Record HMPGGLSAEDVEKMVEKVLTVNGDVVEEIRSGRDPKGKKIKFLAGLVMRDARGQADAAAVSGILERRLKEG . Reported soluble fraction (log2): 0.0256

Short answer for HMGARWPIQDRPLTATEAAAVRRMYAGGLPHGRSKNSVITEVWGDLSNKPKRLDWLNQALEGGA : soluble fraction (log2) was 0.0155
